System: T1, IgG1-Fc (human, UniProt P01857 104-330 = IgG part)
T1 construct: domain: Fc
Assay comment: ELISA

- Binder: "dectin-1 (receptor, UniProt Q9BXN2-2 66-201, looked up, also called dec-1) TMGVLSSPCPPNWIIYEKSCYLFSMSLNSWDGSKRQCWQLGSNLLKIDSSNELGFIVKQVSSQPDNSFWIGLSRPQTEVPWLWEDGSTFSSNLFQIRTTATQENPSPNCVWIHVSVIYDQLCSVPSYSICEKKFSM"
  binding result: "no binding"
- Binder: "clec-4a (receptor, UniProt Q9UMR7 70-237, looked up, also called DCIR) QKYSQLLEKKTTKELVHTTLECVKKNMPVEETAWSCCPKNWKSFSSNCYFISTESASWQDSEKDCARMEAHLLVINTQEEQDFIFQNLQEESAYFVGLSDPEGQRHWQWVDQTPYNESSTFWHPREPSDPNERCVVLNFRKSPKRWGWNDVNCLGPQRSVCEMMKIHL"
  binding result: "no binding"
- Binder: "tetrameric human DC-SIGN (receptor, UniProt Q9NNX6 66-404, looked up) SISQEQSRQDAIYQNLTQLKAAVGELSEKSKLQEIYQELTQLKAAVGELPEKSKLQEIYQELTRLKAAVGELPEKSKLQEIYQELTWLKAAVGELPEKSKMQEIYQELTRLKAAVGELPEKSKQQEIYQELTRLKAAVGELPEKSKQQEIYQELTRLKAAVGELPEKSKQQEIYQELTQLKAAVERLCHPCPWEWTFFQGNCYFMSNSQRNWHDSITACKEVGAQLVVIKSAEEQNFLQLQSSRSNRFTWMGLSDLNQEGTWQWVDGSPLLPSFKQYWNRGEPNNVGEEDCAEFSGNGWNDDKCNLAKFWICKKSAASCSRDEEQFLSPAPATPNPPPA"
  binding result: "no binding"

Data provenance is patent US20210024615A1.
